Quick reference: aptazyme ON/OFF ratio of the listed items.
B1: Pistol ribozyme (parent)
chain: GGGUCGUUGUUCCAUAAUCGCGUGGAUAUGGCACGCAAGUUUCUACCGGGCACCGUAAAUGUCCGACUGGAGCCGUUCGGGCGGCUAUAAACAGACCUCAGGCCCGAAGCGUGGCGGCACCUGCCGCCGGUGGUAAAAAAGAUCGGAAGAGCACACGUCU

# Variants of: B1
# EXPERIMENT_SUMMARY: aptazyme ON/OFF ratio, guanine; higher = stronger switching; co-transcriptional cleavage with and without guanine
Keep it simple and answer with nothing but the number.

The following variants have reported results that may help.
U7A G9A U10A U11A C12U    1.21
G9U C12A C13G    1.45
U7A U8C U10G U11A C12U C13A    1.2
U7C U8G G9U U10G U11A    1.13
U7A U8C G9C U10C U11G C12A C13G    1.07

Look up and report measured aptazyme ON/OFF ratio for this entry: U7A U8C G9U U10A U11C C12U
1.04

Look up and report measured aptazyme ON/OFF ratio for this entry: U7A U8A G9A U10A U11G C12G C13A
1.25

Look up and report measured aptazyme ON/OFF ratio for this entry: U7G U8C G9U U11G C12G C13A
1.08

Look up and report measured aptazyme ON/OFF ratio for this entry: U8G G9C U10C U11G C13G
1.1

Look up and report measured aptazyme ON/OFF ratio for this entry: U7A U8G G9U U10C U11A C12U
1.72

Look up and report measured aptazyme ON/OFF ratio for this entry: U7A U8C G9C U10C U11A C13A
1.07
